Measured abundance fitness, listed per entry for reference.
B1: Far upstream element-binding protein 2, residues 142 to 214; numbered along this chain, Q92945 (parent)
chain: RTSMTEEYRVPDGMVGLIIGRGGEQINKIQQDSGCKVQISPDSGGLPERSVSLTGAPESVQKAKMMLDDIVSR

Variants of: B1
method.notes: abundance fitness (aPCA) (normalised: wild type 0, dead -1); higher = more abundant; growth selection in yeast, the domain comes from the species named
experimental.conditions: Homo sapiens
// return a plain number; no unit text

Below, 3 variants whose answers are already recorded.
G20S: -0.298
C35I: -0.786
I39Y: -0.386

Quick note, abundance fitness for Q61A landed at 0.015

Quick note, abundance fitness for G20R landed at -0.428

Quick note, abundance fitness for M65R landed at -0.023
